# Test system: K4 kissing-loop RNA reporter
# protocol.description: apparent KD of K4 kissing-loop reporter; higher = weaker reporter binding
# condition.set: Eterna round: R107; input ligand: tryptophan 2.4 mM
Consider the following sequences; for each one, report its apparent KD of K4 kissing-loop reporter.
Write down the numeric answer in nM and omit the unit.

Reported apparent KD of K4 kissing-loop reporter for GCGUCUUGGUCGGCCGCCACUGAGCCUAGUCACACUCUUGAGUGAUGUUGAAGAUGGUGGACUUGCAGGACCGGGACCACGGACG [theeternabot_sameState_KL_Trp_B_41] : what is it?
450

Requested read-out: apparent KD of K4 kissing-loop reporter. Entry: CUUACCCAUCGGAUGGAUCAACUGCACACGAAGGAUAUACACACGGGUAGAAGGUCGGGAUUCCAGUGAUGUUGGAUGGUACGAC [theeternabot_exclusion_KL_FMN_A_29]
74.2

Consider the sequence UAACGGCCCAGUGAUGUUGGGUGGAGGCGGCGAGGACCGGUACGGCCGCCACUCGGCGCACAGGCGGAGUGAUGUUGCGCGUAAA [Same State Tryptophan A GF 13] and give its measured apparent KD of K4 kissing-loop reporter.
215

Which apparent KD of K4 kissing-loop reporter is reported for this sequence? AGAUUCGACACGGCCGCCACUUGUGGUGGAUUAUCCUAUGUCGAACAUGAGUGAUGUUCAUGUACAAGGACCGGGUGUUGAGUCU [KL-XTryp-B6 #analogue]
492

Data request, read-out apparent KD of K4 kissing-loop reporter, for AAUAAGGUCGCCGAUACCAGCGCAGGCAGAGCAAAGCUCUGCCAGGUAGUGAUGUUACCGCGCCCUUGGCAGCGGUGGCACGACC [Omei KL Theo B SS C v2]
579

---

Give apparent KD of MS2 coat protein for every item shown.
# System: MS2 coat protein
# protocol.description: apparent KD of MS2 coat protein; higher = weaker reporter binding
# condition.set: Eterna round: R107; input ligand: theophylline 2 mM
Reply with just the number (in nM).

Sample CCUCACGAAAUCGAUGAAAGCAUGUGGCACCGAGGACCGGUACGGCCGCCACUCGCAUCCACACAUGAGGAUCACCCAUGUAAGA [theeternabot_exclusion_MS2_Trp_A_9] — what was its apparent KD of MS2 coat protein?
59.6

Entry UGGGUCGGAUGAGUAAAUUGUCGGACUCAUCGAGGACCGGUACGGCCGCCACUCGGUUGUACAUGAGGAUCACCCAUGUCAGGGU [#1 Same State - Tryptophan A Attempt #17 (HarryS)] : reported apparent KD of MS2 coat protein = ?
749

Given the sequence ACAUGAGGAUCACCCAUGUUAAACAGGGUGCGAGGACCGGUACGGCCGCCACUCGGACAUUAUUACGAGUGAAUGGCAACGAUGU [#12 Exclusion Tryptophan A] , what is its reported apparent KD of MS2 coat protein?
24.4

Look at this sequence and give its reported apparent KD of MS2 coat protein. ACACAUGAGGAUCACCCAUGUGCGCUGGAAGGAGCGCAGAAUCAUGCAGGUAGGUCGCCAGUGCCCUUUGAUAAAGGGAAAAGAG [Reor]
76.9

Dear colleague, I am looking for the recorded apparent KD of MS2 coat protein of the following sequence: ACUACAUGAGGAUCACCCAUGUGUACUGAAGGAGCGGCGGAAACGCCAGGUAGGUCGCAGUACACCUCAACCAGCGGUCCUAAGU [EAA NP+V+V2 #1]
115

Recorded apparent KD of MS2 coat protein for AGUUGCGUUGGAAGGAGCGGCAUGUGUGGGCCUCCUUACAAUACAUGAGGAUCACCCAUGUGCCAGGUAGGUCGCCAACACAGGU [Tiedmaqu] , please?
96

---

I'd be grateful if you could share measured apparent KD of K4 kissing-loop reporter for these entries.
# Tested on: K4 kissing-loop RNA reporter
# protocol.description: apparent KD of K4 kissing-loop reporter; higher = weaker reporter binding
# condition.set: Eterna round: R107; input ligand: FMN 200 uM
Supply the numeric figure in nM, leaving out any unit text.

Record AUAUUAACUCAGUGAUGUUGAGUUGACGAAGGAGCGCUAGAGAUAGCAGGUAGGUCGCGUCAAUUUAAUGGAGACUAGCUUUACG [Arg A Ex t4] : what is its apparent KD of K4 kissing-loop reporter with K4 kissing-loop RNA reporter?
343

Hello, I am looking for reported apparent KD of K4 kissing-loop reporter with K4 kissing-loop RNA reporter for CCUAUCUCAUACGAUACCAGUCAAUGAGAUUUUAUCAAUGCCAUCACCGAGUGAUGUUCGGACCCUUGGCAGCGUAUGGGAUAGG [#02 K4 Theophylline B Exclusion] . Could you help?
236

Write down the reported apparent KD of K4 kissing-loop reporter of UGACAUUGCUCAGAUACCAGUCAUGAGGAUCACCCAUGGGCCAAAACGUACUAAAUAAAUGACCCUUGGCAGCUGAGCAAUGUCU [TheoBX 13] , test system: K4 kissing-loop RNA reporter.
116

# returns recorded apparent KD of K4 kissing-loop reporter (system: K4 kissing-loop RNA reporter) for AGGUAUGUCUGAAGGAGCGACUAAGAAGCAGUGAUGUUGCUAAGUAGUAAGUAGCUACGUAGUCAGGUAGGUCGCAGAUAUACCU [Arg B SS t14]
322

Kindly state the measured apparent KD of K4 kissing-loop reporter obtained for GGCAGUGAUGUUGCCAGUGGCAGAUGCGAAGGAGCGCAGUGAGAUGCAGGUAGGUCGCGCAUUGAAAUUGCUGUCACUAAAAUGC [#2] with K4 kissing-loop RNA reporter.
363

Entry UUGCAAAAGUCGGCCGCCACUCCGGGCCCUAUAAAUGGGCGCAGUGAUGUUGCGGCUAGGCCUCUGAGGACCGGGACUUUGUAGC [Aenonlebe] , system K4 kissing-loop RNA reporter: what apparent KD of K4 kissing-loop reporter was measured?
79

Quick check: apparent KD of K4 kissing-loop reporter on K4 kissing-loop RNA reporter, item UUAGAGAUCUCAGGAUAUCAGUGAUGUUGGUGUGAAGAUCUGAGAUAGAAUUCUAUCUCAGAUCAAUGAGAAGGGAGAUCUCAUU [AK3.1 Exc FMN B] ?
385

Param readout = apparent KD of K4 kissing-loop reporter; param system = K4 kissing-loop RNA reporter; param query = GUAGGAUGAGGAGGAGGAUGAAUUACUGAAGGAGCGCAUAUUAAUGCAGGUAGGUCGCGGUAAAGAAGUAUAGUGAUGUUAUAUA [SSArgA.H] ; response: value
238

Record lookup: for K4 kissing-loop RNA reporter, what apparent KD of K4 kissing-loop reporter belongs to UGUACCGAGUCAGGAUAUGGCGUCGAAAGACGAAACCAGUGAUGUUGGAAAAUCUGCGAAAGCAGUCCAGAAGGGACUUGGUACU [FmnBS 24 #SwitchBubble #StaticStem #DoubleMagnetSystem] ?
193

# returns recorded apparent KD of K4 kissing-loop reporter (system: K4 kissing-loop RNA reporter) for AAAUAAAGGGCGGCCGCCACUGAUCGCCUCCGCGUGGGUAUGUAGUGAUGUUAUAUGGCCGCCAUCAGGACCGGGCCAAAUAAAA [#10 K4 Tryptophan B Same State]
214

Give recorded apparent KD of K4 kissing-loop reporter with K4 kissing-loop RNA reporter for the following sequence: CGUUUAUAGCAGGAUACCAGUGCGGAUAAGGUGCGUUAAUAGUAGAGUGAUGUUCUAAAGUACCCUUGGCAGCUUAGAGUGAGUG [#21 K4 Theophylline B Exclusion]
202

I'm curious: which apparent KD of K4 kissing-loop reporter was measured for CGAGUGAUGUUCGUUUUUUACUCUGUUUGACAGGAUAUGCGGAAACGCAGAAGGGUCACCUUUGAGUUAGACGGAGUUAUUUUUU [Ex FMN A 21] tested on K4 kissing-loop RNA reporter?;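 also: bound reporter read as fluorescence of individual clusters on recovered sequencing chips by microscopy, with normalized cluster intensities fitted with a binding model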
409

---

For each record, write down the corresponding apparent KD of MS2 coat protein.
# Test system: MS2 coat protein
# protocol.description: apparent KD of MS2 coat protein; designed switch direction (-1 OFF switch, 1 ON switch): -1; higher = weaker reporter binding
# condition.set: input ligand: FMN 200 uM
Please respond with the number in nM and leave the unit unwritten.

Record request: apparent KD of MS2 coat protein value, item UUAAUGAUUGUGAGGAUAUUUGAUAGAUAGAUAUUAGAGAAGGUACAUGAGGAUCACCCAUGUGUGAUUAGAGA [Brourd's EX4 #70] (Eterna round: R97, puzzle: Brourd's mod of Exclusion 4)
164

// query apparent KD of MS2 coat protein value for entry AAUAUACAUGUAGGAUAUCUGCACGUUUAGUGCAGAGAAGGACAUGAGGAUCACCCAUGUAAUUAAGAUCAAUUAUUAAAUAUU [ENG1/3-B2] (Eterna round: R96, puzzle: Exclusion NG 1)
437

Dear colleague, I am looking for the recorded apparent KD of MS2 coat protein of the following sequence: GUUCGGGCAGGAUAUACAUGAGGAUCACCCAUGUGUGUCCAUACGCGUGAGUCUUCGUGUAGAAGGGUUUGGGC [-30.5, -27.8 kcal, 20% A] (Eterna round: R97, puzzle: Exclusion 3)
27.3

GET /values?readout=apparent KD of MS2 coat protein&item= AAACUGAGGCAAAGCUUUAGUCGUACAUGAGGAUCACCCAUGUAGGAUAUGGUAGGCUUUGCUUACCAGAAGGACAGAGUGAUC [Mat - Exclusion NG 3 - Mod of JL - D56] (Eterna round: R96, puzzle: Exclusion NG 3)
235

Dear colleague, I am looking for the recorded apparent KD of MS2 coat protein of the following sequence: CUGGCUUAGAGAGGAUAUGACAUUCAAGCCUACCCUGGCCACGGGCCACAUGAGGAUCACCCAUGUCAGAAGGCUCAGGCCAGA [Enorri] (Eterna round: R96, puzzle: Exclusion NG 2)
61.7
